Entries annotated with measured melting point

Solved entries:
Check the records and state melting point for "CCCCn1cnc2c(Oc3ccc(OCC)cc3)nc(Nc3ccc(F)cc3)nc21"
138 to 140 °C

Note down melting point recorded for "CCCCCn1cnc2c(OCC)nc(Nc3ccccc3)nc21"
174 to 176 °C

Give the measured melting point for "CCCCn1cnc2c(OC)nc(Nc3ccc(OC)nc3)nc21"
171 to 172 °C

Please give measured melting point of the following entry: "CCCCn1cnc2c(OCCOC)nc(Nc3cnc4ccccc4c3)nc21"
161 to 163 °C

Input "CCCCn1cnc2c(OCC)nc(Nc3ccc(OC(C)C)cc3F)nc21.CS(=O)(=O)O" , output reported melting point.
138 °C

Others:
Please give the documented melting point of "CCCCn1cnc2c(OC)nc(Nc3ccc(OCC)cc3)nc21"
171 to 172 °C

Read the entry "C=CCOc1nc(Nc2ccc(OC)nc2)nc2c1ncn2CCCC" and write its reported melting point.
174 to 176 °C

Note melting point for the compound shown: "CCCCn1cnc2c(OCCCOCC)nc(Nc3ccc(F)cc3)nc21"
95 to 97 °C

Complete the entry with melting point for "CCCCn1cnc2c(OC)nc(Nc3ccc(OC)cc3OC)nc21"
104 to 106 °C

Read off the recorded melting point for "CCCCn1cnc2c(OCc3ccccn3)nc(Nc3ccc(OC)nc3)nc21"
150 to 153 °C

Please give the documented melting point of "C=CCOc1nc(Nc2ccc(OCC)nc2)nc2c1ncn2CCCC"
158 to 160 °C

Please give the documented melting point of "CCCCn1cnc2c(OCCF)nc(Nc3cnc4ccccc4c3)nc21"
181 to 183 °C

Kindly indicate its recorded melting point. Item: "CCCCn1cnc2c(OCC(C)C)nc(Nc3ccc(OCC)nc3)nc21"
96 to 98 °C

---

Parameter melting point: see the listing below.

Consider the worked cases shown below.
Read the entry "C=C(C)COc1nc(Nc2cnc3ccccc3c2)nc2c1ncn2CCCC" and write its reported melting point.
106 to 108 °C

Consider the compound "CCCCn1cnc2c(Oc3ccccc3F)nc(Nc3ccc(F)cc3)nc21" . State its measured melting point.
155 to 157 °C

Please give the documented melting point of "CCCCCCn1cnc2c(OC)nc(Nc3ccccc3)nc21"
158 to 160 °C

Please list melting point recorded for the compound "CCCCn1cnc2c(Oc3ccccc3)nc(Nc3ccc(F)cc3)nc21"
171 to 172 °C

// fetch melting point given entry "CCCCn1cnc2c(SCC)nc(Nc3ccccc3)nc21"
173 to 175 °C

Next:
Return value of melting point for input "CCCCn1cnc2c(OC)nc(Nc3ccc(OC)cc3)nc21" , no commentary.
158 to 160 °C

---

Listed below: melting point values for each entry.

Before answering, review these 3 worked examples.
Read the entry "C=CCSc1nc(Nc2ccc(OC)nc2)nc2c1ncn2CCCC" and write its reported melting point.
107 to 109 °C

Provide one value: measured melting point of "CCCCn1cnc2c(OCC)nc(Nc3ccc(OC)nc3)nc21"
170 to 172 °C

Given the compound CCCCn1cnc2c(OCC3CCCO3)nc(Nc3ccc(OC)nc3)nc21 (centres unmarked) , write its reported melting point.
147 to 149 °C

Continuing:
Recall and state the measured melting point for "CCCCn1cnc2c(OCCO)nc(Nc3ccc(OCC)nc3)nc21" .
166 to 168 °C

Give a short answer stating reported melting point for "CCCCn1cnc2c(OCC(F)F)nc(Nc3ccc(OCC)nc3)nc21" .
151 to 152 °C

Return value of melting point for input "CCCCn1cnc2c(OC)nc(Nc3ccc(OCC)nc3)nc21" , no commentary.
174 to 176 °C

Quick one: give measured melting point for "CCCCn1cnc2c(OCCOC)nc(Nc3ccccc3)nc21"
129 to 131 °C

Tell me melting point reported for "CCCn1cnc2c(OCC(C)C)nc(Nc3ccc(OC)nc3)nc21"
113 to 115 °C

Look up and report measured melting point for this entry: "CCCCn1cnc2c(OCc3cccs3)nc(Nc3ccccc3)nc21"
170 to 172 °C

For the compound "CCCCn1cnc2c(OCc3cccnc3)nc(Nc3ccccc3)nc21" , give its measured melting point value.
206 to 207 °C

Specify melting point for "CCCCn1cnc2c(OCC)nc(NCc3ccc(OC)cc3)nc21" and stop.
129 to 130 °C

Indicate the recorded melting point value for this compound: "CCCCn1cnc2c(OC(C)C)nc(Nc3ccccc3)nc21"
116 to 118 °C

Give the measured melting point for "C=CCOc1nc(Nc2cnc3ccccc3c2)nc2c1ncn2CCCC"
188 to 192 °C

Give me measured melting point, please, for this compound: "C=C(C)COc1nc(Nc2ccc(OC)nc2)nc2c1ncn2CCCC"
131 to 133 °C

Origin of the recorded values: patent US6414147B1
